Could you please report measured Vd for the items listed next?
assay-remarks: Rat single dose pharmacokinetics
Assay type: in vivo, Sprague Dawley rats
study-conditions: male, Sprague Dawley, plasma, IV, read-out: Vss
API: value field is a number in L/kg; no unit string.

## Input Looking for the measured Vd of CC(C)N1CC(=O)N(Cc2ccc(Cl)c(F)c2)C2(CN(c3cccnn3)C2)C1=O , can you help?
## Output 5.22

## Input Looking for the measured Vd of CC(C)N1CC(=O)N(Cc2ccc(C(F)(F)F)cc2)C2(CN(c3cccnn3)C2)C1=O , can you help?
## Output 2.17

## Input Looking for the measured Vd of CC(C)N1CC(=O)N(Cc2ccc(F)c(Cl)c2)C2(CN(c3cccnn3)C2)C1=O , can you help?
## Output 1.64

## Input Looking for the measured Vd of C[C@H]1CC[C@H](N2CC(=O)N(Cc3ccc(Cl)c(F)c3)C3(CN(C(N)=O)C3)C2=O)CC1 , can you help?
## Output 14.7

## Input Looking for the measured Vd of C[C@H]1CC[C@H](N2CC(=O)N(Cc3ccc(F)c(Cl)c3)C3(CN(C(N)=O)C3)C2=O)CC1 , can you help?
## Output 12.6

## Input Looking for the measured Vd of Cc1cc(CN2C(=O)CN([C@H]3CC[C@H](C)CC3)C(=O)C23CN(C(N)=O)C3)ccc1F , can you help?
## Output 10.1

## Input Looking for the measured Vd of C[C@H]1CC[C@H](N2CC(=O)N(Cc3ccc(F)c(F)c3)C3(CN(C(N)=O)C3)C2=O)CC1 , can you help?
## Output 13.7

## Input Looking for the measured Vd of C[C@H]1CC[C@H](N2CC(=O)N(Cc3ccc(Cl)cc3)C3(CN(C(N)=O)C3)C2=O)CC1 , can you help?
## Output 9.48

* * *

test-system: CYP2D6 (Homo sapiens, UniProt P10635)
Construct: Pooled human microsomes and selective CYP probe substrates were used; from tissue; host or cells: pooled human liver microsomes
Sequence (P10635 whole entry): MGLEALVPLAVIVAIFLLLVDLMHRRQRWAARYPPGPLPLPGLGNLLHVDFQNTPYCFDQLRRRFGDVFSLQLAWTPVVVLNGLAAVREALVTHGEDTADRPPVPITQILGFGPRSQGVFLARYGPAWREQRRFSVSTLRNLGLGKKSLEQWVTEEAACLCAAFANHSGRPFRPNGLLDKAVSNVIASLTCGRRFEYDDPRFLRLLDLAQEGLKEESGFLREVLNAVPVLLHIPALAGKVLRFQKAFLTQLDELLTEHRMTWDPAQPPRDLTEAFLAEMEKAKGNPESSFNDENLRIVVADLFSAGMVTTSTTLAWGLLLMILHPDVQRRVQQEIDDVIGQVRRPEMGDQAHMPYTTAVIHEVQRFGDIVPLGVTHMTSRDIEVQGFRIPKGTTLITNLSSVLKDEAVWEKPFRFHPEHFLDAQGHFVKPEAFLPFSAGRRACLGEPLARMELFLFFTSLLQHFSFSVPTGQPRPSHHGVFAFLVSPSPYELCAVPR
assay-remarks: Time-dependent inhibition of CYP2D6 in human liver microsomes
Format: in vitro ADME
study-conditions: pooled human liver microsomes; CYP2D6, 25 μM, human liver microsomes, after 30 minutes incubation; read-out: % Activity NADPH T30
quantity-measured: activity at 30 min, 25 µM (%)
API: value field is a number in %; no unit string.

## Input Looking for the measured activity at 30 min, 25 µM of Cc1cc(CN2C(=O)CN([C@H]3CC[C@H](C)CC3)C(=O)C23CN(C(N)=O)C3)ccc1F [Compound 6] , can you help?
## Output 87

## Input Looking for the measured activity at 30 min, 25 µM of C[C@H]1CC[C@H](N2CC(=O)N(Cc3ccc(Cl)cc3)C3(CN(C(N)=O)C3)C2=O)CC1 [Compound 18] , can you help?
## Output 105

## Input Looking for the measured activity at 30 min, 25 µM of C[C@H]1CC[C@H](N2CC(=O)N(Cc3ccc(F)c(Cl)c3)C3(CN(C(N)=O)C3)C2=O)CC1 [Compound 7] , can you help?
## Output 88

## Input Looking for the measured activity at 30 min, 25 µM of CC(C)N1CC(=O)N(Cc2ccc(Cl)c(F)c2)C2(CN(c3cccnn3)C2)C1=O [Compound 8] , can you help?
## Output 98

## Input Looking for the measured activity at 30 min, 25 µM of C[C@H]1CC[C@H](N2CC(=O)N(Cc3ccc(F)c(F)c3)C3(CN(C(N)=O)C3)C2=O)CC1 [Compound 5] , can you help?
## Output 89

## Input Looking for the measured activity at 30 min, 25 µM of CC(C)N1CC(=O)N(Cc2ccc(C(F)(F)F)cc2)C2(CN(c3cccnn3)C2)C1=O [Compound 13] , can you help?
## Output 100
